System: B-CPAP (Thyroid Gland Carcinoma);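 also: after 72 h of two-drug dosing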
procedure details: Bliss excess, mean over the matrix (fraction); higher = more synergy
Catalogue of Bliss excess readings, one per entry.
Just the number, please.

Notebook: NC1(C(=O)N[C@@H](CCO)c2ccc(Cl)cc2)CCN(c2ncnc3[nH]ccc23)CC1 [Capivasertib] + CC(=O)c1c(C)c2cnc(Nc3ccc(N4CCNCC4)cn3)nc2n(C2CCCC2)c1=O [Palbociclib] (first compound max 10 µM, 7x7, partner max 10 µM) , Bliss excess read as -0.046

Notebook: COc1cccc2c1C(=O)c1c(O)c3c(c(O)c1C2=O)C[C@@](O)(C(=O)CO)C[C@@H]3O[C@H]1C[C@H](N)[C@H](O)[C@H](C)O1 [Doxorubicin] + Cc1cc2ncnn2cc1Nc1ncc2c(n1)n(C1CCOCC1)c(=O)n2C [AZD7648] (first compound max 1 µM, 7x7, partner max 10 µM) , Bliss excess read as 0.106

Notebook: CN(CCO)CC[C@H](CSc1ccccc1)Nc1ccc(S(=O)(=O)NC(=O)c2ccc(N3CCC([C@@H](O)c4ccccc4-c4ccc(Cl)cc4)CC3)cc2)cc1S(=O)(=O)C(F)(F)F [AZD4320] + CN(C)CCCOc1ccc(-c2ccc3ncc4c(c3c2)n(C2CCOCC2)c(=O)n4C)cn1 [AZD0156] (first compound max 1 µM, 7x7, partner max 1 µM) , Bliss excess read as -0.0065

Notebook: CC1(C)CCC(CN2CCN(c3ccc(C(=O)NS(=O)(=O)c4ccc(NCC5CCOCC5)c([N+](=O)[O-])c4)c(Oc4cnc5[nH]ccc5c4)c3)CC2)=C(c2ccc(Cl)cc2)C1 [Venetoclax] + COc1cc(Nc2ncc3c(n2)-c2ccc(Cl)cc2C(c2c(F)cccc2OC)=NC3)ccc1C(=O)O [Alisertib] (first compound max 1 µM, 7x7, partner max 10 µM) , Bliss excess read as -0.0128

* * *

Tested on: HT-1376 (Bladder Carcinoma)
procedure details: combination Emax (second highest fraction inhibited in the dose matrix, 72 h); higher = more inhibition; extreme values may be limits of the assay
property name: combination Emax
Just the number, please.

Notebook: CC1(C)CCC(CN2CCN(c3ccc(C(=O)NS(=O)(=O)c4ccc(NCC5CCOCC5)c([N+](=O)[O-])c4)c(Oc4cnc5[nH]ccc5c4)c3)CC2)=C(c2ccc(Cl)cc2)C1 [Venetoclax] + Cn1cnc2c(F)c(Nc3ccc(Br)cc3Cl)c(C(=O)NOCCO)cc21 [Selumetinib] (first compound max 1 µM, 7x7, partner max 3 µM) , combination Emax read as 0.163

Notebook: Cc1cc2ncnn2cc1Nc1ncc2c(n1)n(C1CCOCC1)c(=O)n2C [AZD7648] + O=C(c1cc(Cc2n[nH]c(=O)c3ccccc23)ccc1F)N1CCN(C(=O)C2CC2)CC1 [Olaparib] (first compound max 10 µM, 7x7, partner max 10 µM) , combination Emax read as 0.0682

Notebook: Cc1c2c(nn1C)CSCc1cc(n(C)n1)CSc1cc(c3ccccc3c1)OCCCc1c(C(=O)O)n(C)c3c-2c(Cl)ccc13 [AZD5991] + C=CCn1c(=O)c2cnc(Nc3ccc(N4CCN(C)CC4)cc3)nc2n1-c1cccc(C(C)(C)O)n1 [AZD1775] (first compound max 1 µM, partner max 1 µM) , combination Emax read as 0.459

* * *

Tested on: LU-135 (Small Cell Lung Carcinoma)
procedure details: combination Emax (second highest fraction inhibited in the dose matrix, 72 h); higher = more inhibition; extreme values may be limits of the assay
Parameter threshold = 0.6. Response is Condition met when combination Emax meets or exceeds it, else Condition not met.

A selection of reference data follows.
INSERT INTO assay_data (compound, category) VALUES
  ('CCN(CCO)CCCOc1ccc2c(Nc3cc(CC(=O)Nc4cccc(F)c4)[nH]n3)ncnc2c1 [AZD2811] + C[C@@H]1COCCN1C2=NC(=NC(=C2)C3(CC3)[S@](=N)(=O)C)C4=C5C=CNC5=NC=C4 [AZD6738] (first compound max 1 µM, 7x7, partner max 10 µM)', 'Condition met'),
  ('COc1nnc2ccc(N3CCC(c4ccc(OCCN5CCN(C)C(=O)[C@H]5C)cc4)CC3)nn12 [AZD5153] + CCN(CCO)CCCOc1ccc2c(Nc3cc(CC(=O)Nc4cccc(F)c4)[nH]n3)ncnc2c1 [AZD2811] (first compound max 1 µM, 7x7, partner max 1 µM)', 'Condition met');

Moving on to another compound below.
Check the entry Cc1c2c(nn1C)CSCc1cc(n(C)n1)CSc1cc(c3ccccc3c1)OCCCc1c(C(=O)O)n(C)c3c-2c(Cl)ccc13 [AZD5991] + C=CCn1c(=O)c2cnc(Nc3ccc(N4CCN(C)CC4)cc3)nc2n1-c1cccc(C(C)(C)O)n1 [AZD1775] (first compound max 1 µM, partner max 1 µM) : does combination Emax equal or exceed 0.6?
Condition not met

The measured values listed here are drawn from the supplement of paper PMC11061612.
